Source listed as patent US20190071490A1.

Target: T1, rat α-CGRP (1-37) (rat, C-terminal amide; N-terminal biotin when captured on the SA chip)
T1 construct: also called rat α (1-37); α-rat
T1 peptide: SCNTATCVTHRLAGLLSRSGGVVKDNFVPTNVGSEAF
Assay: Biacore, 37°C, Fab over CGRP on SA chip
pKd: −log10 of the molar value.
# label = True if pKd >= 7 else False

# bool: pKd of G1 variant M2 Fab (Fab, V domains shown, Fab; constant domains as m1) VH: EVQLVESGGGLVQPGGSLRLSCAASGFTFSNYWISWVRQAPGKGLEWVAEIRSESDASATHYAEAVKGRFTISRDNAKNSLYLQMNSLRAEDTAVYYCARYFDYGLAIQNYWGQGTLVTVSS VL: EIVLTQSPATLSLSPGERATLSCKASKRVTTYVSWYQQKPGQAPRLLIYGASNRYLGIPARFSGSGSGTDFTLTISSLEPEDFAVYYCSQSYNYPYTFGQGTKLEIK >= 7
True

# bool: pKd of G1 variant M49 Fab (Fab, V domains shown, Fab; constant domains as m1) VH: EVQLVESGGGLVQPGGSLRLSCAASGFTFSNYWISWVRQAPGKGLEWVAEIRSKSDNYATFYAEAVKGRFTISRDNAKNSLYLQMNSLRAEDTAVYYCTVYFDYGLAIQNYWGQGTLVTVSS VL: EIVLTQSPATLSLSPGERATLSCKASKNVTTYVSWYQQKPGQAPRLLIYAASNRYTGIPARFSGSGSGTDFTLTISSLEPEDFAVYYCSQSYNYPYTFGQGTKLEIK >= 7
False

# bool: pKd of G1 variant M23 Fab (Fab, V domains shown, Fab; constant domains as m1) VH: EVQLVESGGGLVQPGGSLRLSCAASGFTFSNYWISWVRQAPGKGLEWVAEIRSESDASATHYAEAVKGRFTISRDNAKNSLYLQMNSLRAEDTAVYYCTVYFDYGLAIQNYWGQGTLVTVSS VL: EIVLTQSPATLSLSPGERATLSCKASKGVTTYVSWYQQKPGQAPRLLIYGASNRYLGIPARFSGSGSGTDFTLTISSLEPEDFAVYYCSQSYNYPYTFGQGTKLEIK >= 7
True

# bool: pKd of G1 variant M35 Fab (Fab, V domains shown, Fab; constant domains as m1) VH: EVQLVESGGGLVQPGGSLRLSCAASGFTFSNYWISWVRQAPGKGLEWVAEIRSKSDSSATHYAEAVKGRFTISRDNAKNSLYLQMNSLRAEDTAVYYCTVYFDYGLAIQNYWGQGTLVTVSS VL: EIVLTQSPATLSLSPGERATLSCKASKNVGTYVSWYQQKPGQAPRLLIYGASNRYLGIPARFSGSGSGTDFTLTISSLEPEDFAVYYCSQSYNYPYTFGQGTKLEIK >= 7
False
